Please provide measured Kd for the entries that follow.
Target protein (sequence): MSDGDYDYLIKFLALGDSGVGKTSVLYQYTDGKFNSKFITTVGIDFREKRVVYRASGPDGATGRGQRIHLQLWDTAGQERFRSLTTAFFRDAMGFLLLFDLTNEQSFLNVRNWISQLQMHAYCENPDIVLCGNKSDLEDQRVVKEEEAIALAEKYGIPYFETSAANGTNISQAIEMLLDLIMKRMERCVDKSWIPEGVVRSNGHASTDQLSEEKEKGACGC
Calls of active or inactive are those of the source.

These solved cases illustrate the format of a correct answer.
Cn1cc(-c2cnn3c(N)c(Br)c([C@@H]4CCCNC4)nc23)cn1 :: > 30 µM (inactive)
CCn1c(C(=O)N(C2CC2)C2CC2)cc2c3c(ncn3C)c(Nc3cc(C)n(C)n3)nc21 :: > 30 µM (inactive)
Cc1cccc(-c2nn3c(c2-c2ccnc4ccc(C(N)=O)cc24)CCC3)n1 :: > 30 µM (inactive)

// next item, Kd requested
Exercise: Name the recorded Kd of the compound listed here: "C[C@@H](Oc1cc(-n2cnc3ccc(CN4CCN(C)CC4)cc32)sc1C(N)=O)c1ccccc1C(F)(F)F"
Key: > 30 µM (inactive)

---

- assayedSystem: Platelet-derived growth factor receptor beta (Homo sapiens); also: in the data inactive means no Kd found up to 30 µM
- Sequence (P09619 whole entry): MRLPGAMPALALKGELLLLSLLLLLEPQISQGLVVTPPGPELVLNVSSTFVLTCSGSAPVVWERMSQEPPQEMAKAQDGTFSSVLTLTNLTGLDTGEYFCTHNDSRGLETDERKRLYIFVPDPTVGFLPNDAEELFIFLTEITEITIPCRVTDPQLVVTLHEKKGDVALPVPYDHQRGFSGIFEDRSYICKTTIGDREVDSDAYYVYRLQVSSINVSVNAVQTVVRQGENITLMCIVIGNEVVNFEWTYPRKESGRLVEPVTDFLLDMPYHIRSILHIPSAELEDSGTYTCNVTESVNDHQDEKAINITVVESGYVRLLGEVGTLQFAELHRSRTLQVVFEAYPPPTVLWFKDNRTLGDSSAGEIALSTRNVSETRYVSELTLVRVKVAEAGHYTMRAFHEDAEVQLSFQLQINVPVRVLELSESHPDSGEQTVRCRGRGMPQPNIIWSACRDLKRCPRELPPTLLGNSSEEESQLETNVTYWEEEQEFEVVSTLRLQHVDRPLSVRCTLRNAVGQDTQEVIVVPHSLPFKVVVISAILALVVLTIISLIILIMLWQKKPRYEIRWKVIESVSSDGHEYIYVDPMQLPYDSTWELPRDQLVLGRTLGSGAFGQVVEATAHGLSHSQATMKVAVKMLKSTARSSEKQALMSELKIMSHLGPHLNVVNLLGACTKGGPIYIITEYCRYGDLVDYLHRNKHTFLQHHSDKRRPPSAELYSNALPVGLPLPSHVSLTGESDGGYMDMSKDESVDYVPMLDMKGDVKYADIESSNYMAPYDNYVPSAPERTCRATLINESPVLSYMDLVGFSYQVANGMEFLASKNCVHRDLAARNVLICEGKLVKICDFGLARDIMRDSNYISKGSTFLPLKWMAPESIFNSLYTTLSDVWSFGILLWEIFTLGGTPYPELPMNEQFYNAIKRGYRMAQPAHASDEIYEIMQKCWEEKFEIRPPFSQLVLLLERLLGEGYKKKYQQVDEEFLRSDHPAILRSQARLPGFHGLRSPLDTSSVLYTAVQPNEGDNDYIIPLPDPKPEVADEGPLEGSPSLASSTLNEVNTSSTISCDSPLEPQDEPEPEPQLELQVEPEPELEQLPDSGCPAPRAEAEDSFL
The source made the active and inactive calls.
I would appreciate it if you answered using one of these outcomes: 1 = active, 0 = inactive

Here's what some known entries look like.
COc1cc(Nc2ncc3c(n2)-c2ccc(Cl)cc2C(c2c(F)cccc2OC)=NC3)ccc1C(=O)O :: 0
Cc1cc(Nc2ncnc3ccc(NC4=NC(C)(C)CO4)cc23)ccc1Oc1ccn2ncnc2c1 :: 0

Exercise: Hello, I am checking results. What call was entered for C=CC(=O)Nc1cc2c(Nc3ccc(F)c(Cl)c3)ncnc2cc1C#CC(C)(C)N1CCN(C)CC1 [AV-412 FREE BASE] ?
Key: 0

Exercise: Hi, do you know how "CN1C/C=C/CCOc2cccc(c2)-c2ccnc(n2)Nc2cccc(c2)C1" came out in this test?
Key: 0

Exercise: Hi, sorry to bother you, what did the test record for "COc1c(OCCCN2CCOCC2)ccc2c1N=C(NC(=O)c1cnc(N)nc1)N1CCN=C21" ?
Key: 0

Exercise: What call does the record list for "Cc1cc(C(=O)NOCCO)c(Nc2ccc(I)cc2F)n(C)c1=O" ?
Key: 0

Exercise: What was the test verdict on "CO[C@H]1C[C@@H]2CC[C@@H](C)[C@@](O)(O2)C(=O)C(=O)N2CCCC[C@H]2C(=O)O[C@H]([C@H](C)C[C@@H]2CC[C@@H](OP(C)(C)=O)[C@H](OC)C2)CC(=O)[C@H](C)/C=C(\C)[C@@H](O)[C@@H](OC)C(=O)[C@H](C)C[C@H](C)/C=C/C=C/C=C/1C" ?
Key: 0

Exercise: Give the logged outcome of this assay for the following compound: "O=C(Cc1ccc(-c2ccc(OCCN3CCOCC3)cc2)cn1)NCc1ccccc1"
Key: 0

Exercise: What is the recorded call for this compound in the test? O=c1[nH]ccc2cc(OC3CCNCC3)ccc12 [SAR-407899 FREE BASE]
Key: 0

Exercise: Hi, do you know how "NC(=O)Nc1cc(-c2cccc(F)c2)sc1C(=O)N[C@H]1CCCNC1" came out in this test?
Key: 1

Exercise: Look up the recorded call for "CO[C@H]1C[C@@H]2CC[C@@H](C)[C@@](O)(O2)C(=O)C(=O)N2CCCC[C@H]2C(=O)O[C@H]([C@H](C)C[C@@H]2CC[C@@H](O)[C@H](OC)C2)CC(=O)[C@H](C)/C=C(\C)[C@@H](O)[C@@H](OC)C(=O)[C@H](C)C[C@H](C)/C=C/C=C/C=C/1C" in this test.
Key: 0

Exercise: Give the logged outcome of this assay for the following compound: "NC1(c2ccc(-c3nc4ccn5c(=O)[nH]nc5c4cc3-c3ccccc3)cc2)CCC1"
Key: 0

Exercise: Tell me the assay call for "CNC(=O)c1cc(Oc2ccc(NC(=O)Nc3cc(C(C)(C)C)nn3-c3ccc4ncccc4c3)c(F)c2)ccn1" please.
Key: 0

Exercise: Field: outcome | Entry: "C=CC(=O)N1CCC[C@H](n2c(=O)n(-c3ccc(Oc4ccccc4)cc3)c3c(N)ncnc32)C1"
Key: 0

Exercise: What did this assay record as the result for "Cn1ncc(Cl)c1-c1cc(C(=O)N[C@H](CN)Cc2ccc(F)c(F)c2)oc1Cl" ?
Key: 0

Exercise: Entry "C[C@H]1CNCCCN1S(=O)(=O)c1cccc2cncc(F)c12" : call = ?
Key: 0
